Listing: EC50, luciferase reporter assay in IL-1Rrp2 transfected Jurkat cells of selected binders
systemTested: T1, human IL-1Rrp2 (IL-1R-related protein 2) (human, UniProt Q9HB29 20-575)
T1 sequence (looked up): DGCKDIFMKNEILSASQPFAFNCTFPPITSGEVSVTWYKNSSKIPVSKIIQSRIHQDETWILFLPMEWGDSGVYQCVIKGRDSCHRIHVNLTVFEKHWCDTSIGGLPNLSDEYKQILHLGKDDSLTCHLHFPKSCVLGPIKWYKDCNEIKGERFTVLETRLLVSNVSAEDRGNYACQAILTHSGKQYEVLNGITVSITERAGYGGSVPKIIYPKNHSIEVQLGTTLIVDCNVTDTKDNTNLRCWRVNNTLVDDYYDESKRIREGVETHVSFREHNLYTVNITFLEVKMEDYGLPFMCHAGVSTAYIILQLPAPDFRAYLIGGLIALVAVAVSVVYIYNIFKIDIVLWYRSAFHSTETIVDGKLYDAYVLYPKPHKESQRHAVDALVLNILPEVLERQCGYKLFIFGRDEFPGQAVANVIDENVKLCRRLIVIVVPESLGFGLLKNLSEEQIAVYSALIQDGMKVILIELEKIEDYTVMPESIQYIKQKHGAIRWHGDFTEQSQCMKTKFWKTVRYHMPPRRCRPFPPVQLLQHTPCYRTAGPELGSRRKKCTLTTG
experiment: cell-based or functional assay
observationType: EC50, luciferase reporter assay in IL-1Rrp2 transfected Jurkat cells

>>> result("HuIL-1F8WT (untagged full length wild type human IL-1F8) (ligand) MNPQREAAPKSYAIRDSRQMVWVLSGNSLIAAPLSRSIKPVTLHLIACRDTEFSDKEKGNMVYLGIKGKDLCLFCAEIQGKPTLQLKEKNIMDLYVEKKAQKPFLFFHNKEGSTSVFQSVSYPGWFIATSTTSGQPIFLTKERGITNNTNFYLDSVE")
"> 0.193 µg/mL"
>>> result("HuIL-1F8WT/FpH (ligand) MNPQREAAPKSYAIRDSRQMVWVLSGNSLIAAPLSRSIKPVTLHLIACRDTEFSDKEKGNMVYLGIKGKDLCLFCAEIQGKPTLQLKEKNIMDLYVEKKAQKPFLFFHNKEGSTSVFQSVSYPGWFIATSTTSGQPIFLTKERGITNNTNFYLDSVEDYKDDDDKHHHHHH")
"> 0.258 µg/mL"
>>> result("HuIL-1F9WT/FpH (ligand) MRGTPGDADGGGRAVYQSMCKPITGTINDLNQQVWTLQGQNLVAVPRSDSVTPVTVAVITCKYPEALEQGRGDPIYLGIQNPEMCLYCEKVGEQPTLQLKEQKIMDLYGQPEPVKPFLFYRAKTGRTSTLESVAFPDWFIASSKRDQPIILTSELGKSYNTAFELNINDDYKDDDDKHHHHHH")
"> 0.332 µg/mL"
